- Tested on: HT1080 cells
- protocol_notes: Cell viability CCK-8 assay
- Type: cell-based, human
- condition_context: Homo sapiens, HT-1080, CCK-8, 48 h, read-out: IC50 (cytotoxicity)
pIC50: −log10 of the molar value.
observed_property: pIC50

- COc1ccc(-c2nc(-c3cc(C(F)(F)F)cc(C(F)(F)F)c3)n(Cc3ccc(C(=O)NCCCCNC(=O)Cn4cc(COc5ccc(N(C(=O)CCl)C(C(=O)NCCc6ccccc6)c6cccs6)cc5Cl)nn4)cc3)c2-c2ccc(OC)cc2)cc1 (centres unmarked): 6.89
- COc1ccc(-c2nc(-c3cc(C(F)(F)F)cc(C(F)(F)F)c3)n(Cc3ccc(C(=O)NCCOCCOCCOCCn4cc(COc5ccc(N(C(=O)CCl)C(C(=O)NCCc6ccccc6)c6cccs6)cc5Cl)nn4)cc3)c2-c2ccc(OC)cc2)cc1 (centres unmarked): 6.55
- COc1ccc(-c2nc(-c3cc(C(F)(F)F)cc(C(F)(F)F)c3)n(Cc3ccc(C(=O)NCCCNC(=O)Cn4cc(COc5ccc(N(C(=O)CCl)C(C(=O)NCCc6ccccc6)c6cccs6)cc5Cl)nn4)cc3)c2-c2ccc(OC)cc2)cc1 (centres unmarked): 6.28
- COc1ccc(-c2nc(-c3cc(C(F)(F)F)cc(C(F)(F)F)c3)n(Cc3ccc(C(=O)NCCCCCNC(=O)Cn4cc(COc5ccc(N(C(=O)CCl)C(C(=O)NCCc6ccccc6)c6cccs6)cc5Cl)nn4)cc3)c2-c2ccc(OC)cc2)cc1 (centres unmarked): 6.85

* * *

- protocol_notes: Pharmacokinetic study in ICR mice
- Assay type: in vivo
- condition_context: mouse; male ICR mice, IP, 30 mg/kg, plasma
observed_property: half-life (h)

- COc1ccc(-c2nc(-c3cc(C(F)(F)F)cc(C(F)(F)F)c3)n(Cc3ccc(C(=O)NCCOCCOCCOCCn4cc(COc5ccc(N(C(=O)CCl)C(C(=O)NCCc6ccccc6)c6cccs6)cc5Cl)nn4)cc3)c2-c2ccc(OC)cc2)cc1 (stereo not shown) [GDAz-3]: 10.2
